Assign protein stability index to each entry below.
B1: RTN2 (parent)
chain: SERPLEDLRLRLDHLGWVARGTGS

Variants of: B1
Assay: protein stability index of a GFP-peptide fusion (GPS, HEK-293T) (PSI 1-6); higher = more stable;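 note: lentivirally expressed fusions sorted by FACS into six bins by GFP to DsRed ratio, PSI derived from sequencing read proportions per bin multiplied by bin number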
Conditions: c terminus: a fixed tail appended
// response body must contain only the number

Exercise: Need protein stability index of `SERPLEDLRLRLDHMGWVARGTGS` , thanks.
Solution: 1.89

Exercise: Try `SERPLEDLRLRLDHLGWWARGTGS` next.
Solution: 2.8

Exercise: Queued: `NERPLEDLRLRLDHLGWVARGTGS`
Solution: 2.57

Exercise: Query `SERPLEDLRLRLDHLGWVARGTGN` next
Solution: 3.26

Exercise: Now the same for `SERPLEDLRLRLDHLGWVATGTGS`
Solution: 3.14

Exercise: One more variant: `SERPLEDLRRRLDHLGWVARGTGS`
Solution: 2.19

Exercise: Similarly, `SYRPLEDLRLRLDHLGWVARGTGS` ?
Solution: 2.68

Exercise: Can you check `SERPLEDLRLRLDQLGWVARGTGS` next?
Solution: 1.73

Exercise: Again, but for `SERPLEDLRLTLDHLGWVARGTGS`
Solution: 2.28

Exercise: Continue with `SERPLKDLRLRLDHLGWVARGTGS`
Solution: 1.53

Exercise: Then `SERPSEDLRLRLDHLGWVARGTGS` ?
Solution: 2

Exercise: Also `SERPLEDLRDRLDHLGWVARGTGS` ?
Solution: 2.72

Exercise: Okay, and `SGRPLEDLRLRLDHLGWVARGTGS` ?
Solution: 2.28

Exercise: Quick one: `SEGPLEDLRLRLDHLGWVARGTGS`
Solution: 2.19

Exercise: Thanks! And `SERPLEDLRLRLDHLGYVARGTGS` ?
Solution: 3.48

Exercise: Item: `SERPLPDLRLRLDHLGWVARGTGS`
Solution: 2.15

Exercise: Also, `SERPLEDLRLRLDPLGWVARGTGS` please.
Solution: 2.54

Exercise: Proceed to `SERPLEDLRLRLDHLGWVARGTGH`
Solution: 2.03

Exercise: Next variant: `SERPLEDLRARLDHLGWVARGTGS`
Solution: 2.46

Exercise: Now this one: `SERPVEDLRLRLDHLGWVARGTGS`
Solution: 4.48

Exercise: Would you kindly repeat that for `SERPLEDLRLRLDHFGWVARGTGS` ?
Solution: 2.8

Exercise: Same thing, different variant: `SERPLCDLRLRLDHLGWVARGTGS`
Solution: 2.72

Exercise: Input `SERPLEDLRLRLDHLGWVAFGTGS`
Solution: 2.36

Exercise: Param item: `SERRLEDLRLRLDHLGWVARGTGS`
Solution: 1.59

Exercise: One more variant: `SERPLEDLRLRLDHLAWVARGTGS`
Solution: 2.58

Exercise: And the next one, `SERPLEDLRLRLDHLGWVARGTGW` ?
Solution: 2.11

Exercise: Another: `SERPLEDLRLYLDHLGWVARGTGS`
Solution: 2.7

Exercise: // query: `SERPLEDLRLRLDHLGWVARSTGS`
Solution: 2.68

Exercise: Likewise for `SERPLEDLRLRLDHLGWVARGTCS` ?
Solution: 2.4

Exercise: Same lookup for `SERPLEDHRLRLDHLGWVARGTGS` , please.
Solution: 2.16

Exercise: Repeat for the following variant: `GERPLEDLRLRLDHLGWVARGTGS`
Solution: 2.87

Exercise: Moving on to `SERPLEDLRLRLDHLGWVARGLGS`
Solution: 2.11

Exercise: Please give the result for `SEKPLEDLRLRLDHLGWVARGTGS` too.
Solution: 1.63

Exercise: Now consider `SERPLEWLRLRLDHLGWVARGTGS` .
Solution: 1.29

Exercise: Thanks! And `SERPLEDLRLRLDHLGWVARGTKS` ?
Solution: 3.55

Exercise: Try the variant `SERPLEDLNLRLDHLGWVARGTGS`
Solution: 2.84

Exercise: Similarly, `SERPLEDLSLRLDHLGWVARGTGS` ?
Solution: 1.2

Exercise: Also, `SERPLEDLRLRLDHLGQVARGTGS` please.
Solution: 4.42

Exercise: How about `SEWPLEDLRLRLDHLGWVARGTGS` ?
Solution: 1.62

Exercise: Follow-up entry: `SERPLEDLRLRLCHLGWVARGTGS`
Solution: 2.43

Exercise: Now this one: `SERPLEDLRLRLDHLGWVARGTHS`
Solution: 2.6

Exercise: Please do the same for `SERPLEDLVLRLDHLGWVARGTGS` as well.
Solution: 3.31

Exercise: One more variant: `SERPLEALRLRLDHLGWVARGTGS`
Solution: 1.94

Exercise: Another variant to look at: `SEQPLEDLRLRLDHLGWVARGTGS`
Solution: 2

Exercise: Please give the result for `SERPLEDLRLRLDHLGHVARGTGS` too.
Solution: 3.9

Exercise: Now consider `SERPLEDLRLRLSHLGWVARGTGS` .
Solution: 3.31

Source: the supplement of paper PMC10567573
